Measured values drawn from ChEMBL document CHEMBL3600310 for this set.

tested on: HCT-116; assay: Cytotoxicity against human HCT116 cells after 72 hrs by MTT assay; type: functional, cell-based; settings: HCT-116, 72 h
Mark yes only when IC50 stays strictly below 30 µM. Values equal to the cut-off are no.

Query string: In the record for O=C1c2ccc(Cl)cc2OC2c3[nH]c4ccccc4c3CCN12 (configuration not stated) , is IC50 less than 30 µM?
Result string: no

Query string: In the record for CN1c2cscc2C(=O)N2CCc3c([nH]c4ccc(O)cc34)C21 (configuration not stated) , is IC50 less than 30 µM?
Result string: yes

Query string: In the record for COc1cccc2c1OC1c3[nH]c4ccccc4c3CCN1C2=O (configuration not stated) , is IC50 less than 30 µM?
Result string: yes

Query string: In the record for O=C1c2cc(O)ccc2OC2c3[nH]c4ccccc4c3CCN12 (configuration not stated) , is IC50 less than 30 µM?
Result string: yes

Query string: In the record for CN1c2ccsc2C(=O)N2CCc3c([nH]c4ccc(O)cc34)C21 (configuration not stated) , is IC50 less than 30 µM?
Result string: yes

Query string: In the record for COc1ccc2c(c1)C(=O)N1CCc3c([nH]c4ccc(O)cc34)C1S2 (configuration not stated) , is IC50 less than 30 µM?
Result string: yes

Query string: In the record for O=C1c2cc(Cl)cc(Cl)c2OC2c3[nH]c4ccc(O)cc4c3CCN12 (configuration not stated) , is IC50 less than 30 µM?
Result string: yes

Query string: In the record for COc1ccc2[nH]c3c(c2c1)CCN1C(=O)c2cc(N)ccc2OC31 (configuration not stated) , is IC50 less than 30 µM?
Result string: no

Query string: In the record for CCc1c2c(nc3ccc(OC(=O)N4CCC(N5CCCCC5)CC4)cc13)-c1cc3c(c(=O)n1C2)COC(=O)[C@]3(O)CC [IRINOTECAN] , is IC50 less than 30 µM?
Result string: yes

Query string: In the record for O=C1c2c(F)cccc2OC2c3[nH]c4ccccc4c3CCN12 (configuration not stated) , is IC50 less than 30 µM?
Result string: no

Query string: In the record for COc1ccc2[nH]c3c(c2c1)CCN1C(=O)c2ccc(C(F)(F)F)cc2OC31 (configuration not stated) , is IC50 less than 30 µM?
Result string: no

Query string: In the record for O=C1c2cc(O)ccc2OC2c3[nH]c4ccc(O)cc4c3CCN12 (configuration not stated) , is IC50 less than 30 µM?
Result string: yes

Query string: In the record for COc1ccc2c(c1)C(=O)N1CCc3c([nH]c4ccccc34)C1O2 (configuration not stated) , is IC50 less than 30 µM?
Result string: yes

Query string: In the record for COc1ccc2c(c1)OC1c3[nH]c4ccc(OC)cc4c3CCN1C2=O (configuration not stated) , is IC50 less than 30 µM?
Result string: no

Query string: In the record for COc1ccc2[nH]c3c(c2c1)CCN1C(=O)c2ccc(F)cc2OC31 (configuration not stated) , is IC50 less than 30 µM?
Result string: no

Query string: In the record for CN1c2ccn(C)c2C(=O)N2CCc3c([nH]c4ccc(O)cc34)C21 (configuration not stated) , is IC50 less than 30 µM?
Result string: yes

Query string: In the record for Cc1cccc2c1C(=S)N1CCc3c([nH]c4ccccc34)C1O2 (configuration not stated) , is IC50 less than 30 µM?
Result string: yes

Query string: In the record for COc1ccc2c(c1)OC1c3[nH]c4ccccc4c3CCN1C2=O (configuration not stated) , is IC50 less than 30 µM?
Result string: no

Query string: In the record for CN1c2ccccc2C(=O)N2CCc3c([nH]c4ccccc34)[C@@H]21 [EVODIAMINE] , is IC50 less than 30 µM?
Result string: no

Query string: In the record for O=C1c2ccccc2S(=O)(=O)C2c3[nH]c4ccc(O)cc4c3CCN12 (configuration not stated) , is IC50 less than 30 µM?
Result string: no

Query string: In the record for Cc1cccc2c1C(=O)N1CCc3c([nH]c4ccccc34)C1O2 (configuration not stated) , is IC50 less than 30 µM?
Result string: no

Query string: In the record for O=C1c2cc(Br)ccc2OC2c3[nH]c4ccc(O)cc4c3CCN12 (configuration not stated) , is IC50 less than 30 µM?
Result string: yes

* * *

system: HCT-116; assay: Cytotoxicity against human HCT116 cells after 72 hrs by MTT assay; type: functional, cell-based; settings: HCT-116, 72 h
Provide the reported IC50 of each item.
Write your answer as a measured quantity: the number, then the unit.

Query string: Give recorded IC50. O=C1c2cc3ccccc3cc2OC2c3[nH]c4ccc(O)cc4c3CCN12 (stereo unspecified)
Result string: 5.1 µM

Query string: Give recorded IC50. COc1ccc2[nH]c3c(c2c1)CCN1C(=O)c2cc(Br)ccc2SC31 (stereo unspecified)
Result string: 2.7 µM

Query string: Give recorded IC50. CC[C@@]1(O)C(=O)OCc2c1cc1n(c2=O)Cc2cc3ccccc3nc2-1
Result string: 0.09 µM

Query string: Give recorded IC50. COc1ccc2[nH]c3c(c2c1)CCN1C(=O)c2ccccc2[C@H]31
Result string: 30.9 µM

Query string: Give recorded IC50. COc1ccc2[nH]c3c(c2c1)CCN1C(=O)c2cc(Br)ccc2OC31 (stereo unspecified)
Result string: 5.4 µM

Query string: Give recorded IC50. CC[C@@]1(O)C(=O)OCc2c1cc1n(c2=O)Cc2cc3c(CN(C)C)c(O)ccc3nc2-1
Result string: 0.7 µM

* * *

assay: Cytotoxicity against human SW579 cells after 72 hrs by MTT assay; format: functional, cell-based; details: SW579, 72 h
Provide the reported IC50 of each item.
Numeric answer only, unit µM assumed.

Query string: Give recorded IC50. O=C1c2cc(O)ccc2OC2c3[nH]c4ccc(O)cc4c3CCN12 (stereo unspecified)
Result string: 5.15

Query string: Give recorded IC50. O=C1c2cc(Cl)ccc2OC2c3[nH]c4ccc(O)cc4c3CCN12 (stereo unspecified)
Result string: 5.56

Query string: Give recorded IC50. O=C1c2cc(Cl)ccc2SC2c3[nH]c4ccc(O)cc4c3CCN12 (stereo unspecified)
Result string: 6.9

Query string: Give recorded IC50. COc1ccc2c(c1)C(=O)N1CCc3c([nH]c4ccc(O)cc34)C1S2 (stereo unspecified)
Result string: 7.3

Query string: Give recorded IC50. O=C1c2cc(O)ccc2SC2c3[nH]c4ccc(O)cc4c3CCN12 (stereo unspecified)
Result string: 3.5

Query string: Give recorded IC50. CC[C@@]1(O)C(=O)OCc2c1cc1n(c2=O)Cc2cc3ccccc3nc2-1 [CAMPTOTHECIN]
Result string: 0.71

* * *

Provide the reported pIC50 of each item.
experiment: Cytotoxicity against human Bel7404 cells after 72 hrs by MTT assay; format: functional, cell-based; conditions: BEL-7404, 72 h
pIC50: −log10 of the molar value.

Query string: Give recorded pIC50. O=C1c2cc(O)ccc2SC2c3[nH]c4ccc(O)cc4c3CCN12 (stereo unspecified)
Result string: > 8.52

Query string: Give recorded pIC50. CC[C@@]1(O)C(=O)OCc2c1cc1n(c2=O)Cc2cc3ccccc3nc2-1
Result string: 6.85

Query string: Give recorded pIC50. O=C1c2cc(O)ccc2OC2c3[nH]c4ccc(O)cc4c3CCN12 (stereo unspecified)
Result string: 7.22

Query string: Give recorded pIC50. O=C1c2cc(Cl)ccc2OC2c3[nH]c4ccc(O)cc4c3CCN12 (stereo unspecified)
Result string: > 8.52

Query string: Give recorded pIC50. O=C1c2cc(Cl)ccc2SC2c3[nH]c4ccc(O)cc4c3CCN12 (stereo unspecified)
Result string: > 8.52

Query string: Give recorded pIC50. COc1ccc2c(c1)C(=O)N1CCc3c([nH]c4ccc(O)cc34)C1S2 (stereo unspecified)
Result string: > 8.52

* * *

Provide the reported pIC50 of each item.
biological target: Tubulin; test: Inhibition of brain tubulin (unknown origin) polymerization measured up to 15 to 30 mins
Please keep in mind that pIC50 is minus log10 of the molar concentration; only the number is needed.

Query string: Identify measured pIC50 obtained with Tubulin for O=C1c2cc(Cl)ccc2OC2c3[nH]c4ccc(O)cc4c3CCN12 (stereo not drawn) .
Result string: 5.28

Query string: Identify measured pIC50 obtained with Tubulin for CCC1=C[C@@H]2CN(C1)Cc1c([nH]c3ccccc13)[C@@](C(=O)OC)(c1cc3c(cc1OC)N(C)[C@H]1[C@@](O)(C(=O)OC)[C@H](OC(C)=O)[C@]4(CC)C=CCN5CC[C@]31[C@@H]54)C2 .
Result string: 5.70

Query string: Identify measured pIC50 obtained with Tubulin for O=C1c2cc(Cl)ccc2SC2c3[nH]c4ccc(O)cc4c3CCN12 (stereo not drawn) .
Result string: 5.35

* * *

Provide the reported IC50 of each item.
assay: Cytotoxicity against human MV-3 cells after 72 hrs by MTT assay; assay type: functional, cell-based; details: MV-3, 72 h
Numeric answer only, unit µM assumed.

Query string: Give recorded IC50. O=C1c2cc(Cl)ccc2SC2c3[nH]c4ccc(O)cc4c3CCN12 (stereo unspecified)
Result string: 1.3

Query string: Give recorded IC50. O=C1c2cc(O)ccc2OC2c3[nH]c4ccc(O)cc4c3CCN12 (stereo unspecified)
Result string: 1.2

Query string: Give recorded IC50. O=C1c2cc(Cl)ccc2OC2c3[nH]c4ccc(O)cc4c3CCN12 (stereo unspecified)
Result string: 1.1

Query string: Give recorded IC50. O=C1c2cc(O)ccc2SC2c3[nH]c4ccc(O)cc4c3CCN12 (stereo unspecified)
Result string: 0.14

Query string: Give recorded IC50. COc1ccc2c(c1)C(=O)N1CCc3c([nH]c4ccc(O)cc34)C1S2 (stereo unspecified)
Result string: 1.2
